Test system: 192522-019-R-J2-PDC complex tumor spheroid viability
protocol details: Anticancer human tumor 192522-019-R-J2-PDC patient-derived colon adenocarcinoma cell line growth inhibition [POLQ]
condition summary: second compound 3.16 µM; first compound 10 µM; stronger effect = lower value
quantity measured: viability, T/C (%)
Give a bare numeral; the unit % is implied.

Please review the following examples before continuing.
COc1cccc2c1C(=O)c1c(O)c3c(c(O)c1C2=O)CC(O)(C(=O)CO)CC3OC1CC(N)C(O)C(C)O1 (stereo not given) + COC1C(OC(N)=O)C(O)C(Oc2ccc3c(O)c(NC(=O)c4ccc(O)c(CC=C(C)C)c4)c(=O)oc3c2C)OC1(C)C ... 54.7
CC(C)n1c(=O)n(C)c2cnc3cc(F)c(-c4ccc(OCCCN5CCCCC5)nc4)cc3c21 + Cc1cccc(N(C)C(=O)C2C(O)CCN2c2nc(C)cc(C(F)(F)F)c2C#N)c1 ... 105
COc1ccc([C@@H](O)c2cc(-c3ncnc4cc(N5CCOCC5)ccc34)c(F)cc2Cl)nn1 + COC1C(OC(N)=O)C(O)C(Oc2ccc3c(O)c(NC(=O)c4ccc(O)c(CC=C(C)C)c4)c(=O)oc3c2C)OC1(C)C ... 72.9
C#Cc1c(F)ccc2cc(O)cc(-c3ncc4c(N5CC6CCC(C5)N6)nc(OCC56CCCN5CC(F)C6)nc4c3F)c12 (stereo not given) + Cc1cccc(N(C)C(=O)C2C(O)CCN2c2nc(C)cc(C(F)(F)F)c2C#N)c1 ... 73.3

Prompt line: Give recorded viability, T/C. CCc1cc2c(N3CCc4c(cc(Cn5ccnc5)cc4-c4cn(C)nc4C(F)(F)F)C3=O)cc(C)nc2c(OC)n1 + Cc1cccc(N(C)C(=O)C2C(O)CCN2c2nc(C)cc(C(F)(F)F)c2C#N)c1
Response line: 73.9

----------
Tested on: 192522-019-R-J2-PDC complex tumor spheroid viability
protocol details: Anticancer human tumor 192522-019-R-J2-PDC cell line growth inhibition [POLQ];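 note: spheroids exposed to drugs for seven days before reading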
condition summary: curve of first compound; second compound 3.16 µM
pIC50: −log10 of the molar value.
quantity measured: pIC50

CCc1cc2c(N3CCc4c(cc(Cn5ccnc5)cc4-c4cn(C)nc4C(F)(F)F)C3=O)ccnc2c(OC)n1 + Cc1cccc(N(C)C(=O)C2C(O)CCN2c2nc(C)cc(C(F)(F)F)c2C#N)c1 ... < 5.00
O=C(c1cc(Cc2n[nH]c(=O)c3ccccc23)ccc1F)N1CCN(C(=O)C2CC2)CC1 + COC1C(OC(N)=O)C(O)C(Oc2ccc3c(O)c(NC(=O)c4ccc(O)c(CC=C(C)C)c4)c(=O)oc3c2C)OC1(C)C ... < 5.00
CCc1c2c(nc3ccc(O)cc13)-c1cc3c(c(=O)n1C2)COC(=O)[C@]3(O)CC + Cc1cccc(N(C)C(=O)C2C(O)CCN2c2nc(C)cc(C(F)(F)F)c2C#N)c1 ... 6.63
CC(C)n1c(=O)n(C)c2cnc3cc(F)c(-c4ccc(OCCCN5CCCCC5)nc4)cc3c21 + Cc1cccc(N(C)C(=O)C2C(O)CCN2c2nc(C)cc(C(F)(F)F)c2C#N)c1 ... < 5.00
CCCS(=O)(=O)Nc1ccc(F)c(C(=O)c2c[nH]c3ncc(-c4ccc(Cl)cc4)cc23)c1F + Nc1ccc(C#CCN(C(=O)Cc2ncc(C(F)(F)F)cc2C(F)(F)F)c2ccc(F)cc2)nn1 ... < 5.00

Here is the next item to consider.
Prompt line: # return recorded pIC50 for input COc1cc(C2c3cc4c(cc3C(OC3OC5COC(C)OC5C(O)C3O)C3COC(=O)C23)OCO4)cc(OC)c1O (stereo unspecified) + COC1C(OC(N)=O)C(O)C(Oc2ccc3c(O)c(NC(=O)c4ccc(O)c(CC=C(C)C)c4)c(=O)oc3c2C)OC1(C)C
Response line: < 5.00

----------
The reader will find reported viability, T/C values listed item by item below.
Tested on: 192522-019-R-J2-PDC complex tumor spheroid viability
protocol details: Anticancer human tumor 192522-019-R-J2-PDC cell line growth inhibition [POLQ];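 note: spheroids exposed to drugs for seven days before reading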;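 for viability, T/C: 100% = DMSO vehicle control viability in luminescence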
condition summary: second compound 3.16 µM; first compound 10 µM; stronger effect = lower value
Method: Multicellular complex tumor spheroid response to Polymerase (POL) inhibitors (novobiocin, ART-558, RP6685) in combination with a variety of drugs and investigational agents in selected tumor cell lines The POL inhibitors (novobiocin, ART-558, and RP6685) were evaluated both individually and in combination with standard of care and investigational anticancer small molecules within a complex spheroid model of solid tumors. . […]
Param answer (str): number followed by unit.

Prompt line: Specify reported viability, T/C for the compound shown: CNCc1ccc(-c2[nH]c3cc(F)cc4c3c2CCNC4=O)cc1 + COC1C(OC(N)=O)C(O)C(Oc2ccc3c(O)c(NC(=O)c4ccc(O)c(CC=C(C)C)c4)c(=O)oc3c2C)OC1(C)C
Response line: 95.7%

----------
Test system: 192522-019-R-J2-PDC complex tumor spheroid viability
protocol details: Anticancer human tumor 192522-019-R-J2-PDC cell line growth inhibition [POLQ];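 note: spheroids exposed to drugs for seven days before reading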;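 for viability, T/C: 100% = DMSO vehicle control viability in luminescence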
condition summary: second compound 3.16 µM; first compound 10 µM; stronger effect = lower value
quantity measured: viability, T/C (%)
Kindly answer with a numeric value in %, unit omitted.

Prompt line: Read the entry O=C(Nc1ccc(O)c(NS(=O)(=O)c2ccc(F)cc2)c1)c1ccc(-c2ccccc2)cc1 + COC1C(OC(N)=O)C(O)C(Oc2ccc3c(O)c(NC(=O)c4ccc(O)c(CC=C(C)C)c4)c(=O)oc3c2C)OC1(C)C and write its reported viability, T/C.
Response line: 102

Prompt line: Hello, please tell me recorded viability, T/C for this one: O=C(Nc1ccc(O)c(NS(=O)(=O)c2ccc(F)cc2)c1)c1ccc(-c2ccccc2)cc1 + Nc1ccc(C#CCN(C(=O)Cc2ncc(C(F)(F)F)cc2C(F)(F)F)c2ccc(F)cc2)nn1
Response line: 111

Prompt line: Consider the molecule Nc1ccn(C2OC(CO)C(O)C2(F)F)c(=O)n1 (stereo not drawn) + Cc1cccc(N(C)C(=O)C2C(O)CCN2c2nc(C)cc(C(F)(F)F)c2C#N)c1 and give its recorded viability, T/C.
Response line: 59.7

----------
Tested on: 192522-019-R-J2-PDC complex tumor spheroid viability
protocol details: Anticancer human tumor 192522-019-R-J2-PDC cell line growth inhibition [POLQ];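 note: spheroids exposed to drugs for seven days before reading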;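 for viability, T/C: 100% = DMSO vehicle control viability in luminescence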
condition summary: second compound 0.1 µM; first compound 0.001 µM; stronger effect = lower value
Reported viability, T/C values follow for various molecules
Quick note: give the figure in %, leave out the unit.

Answered cases to consult:
CC[C@@]1(O)C(=O)OCc2c1cc1n(c2=O)Cc2cc3c(CN(C)C)c(O)ccc3nc2-1 + Nc1ccc(C#CCN(C(=O)Cc2ncc(C(F)(F)F)cc2C(F)(F)F)c2ccc(F)cc2)nn1 ... 105
Cn1ncnc1[C@H]1c2n[nH]c(=O)c3cc(F)cc(c23)N[C@@H]1c1ccc(F)cc1 + Cc1cccc(N(C)C(=O)C2C(O)CCN2c2nc(C)cc(C(F)(F)F)c2C#N)c1 ... 96.3

Prompt line: Report measured viability, T/C on 192522-019-R-J2-PDC complex tumor spheroid viability; entry: CC[C@@]1(O)C(=O)OCc2c1cc1n(c2=O)Cc2cc3c(CN(C)C)c(O)ccc3nc2-1 + COC1C(OC(N)=O)C(O)C(Oc2ccc3c(O)c(NC(=O)c4ccc(O)c(CC=C(C)C)c4)c(=O)oc3c2C)OC1(C)C
Response line: 103

----------
System: 192522-019-R-J2-PDC complex tumor spheroid viability
protocol details: Anticancer human tumor 192522-019-R-J2-PDC cell line growth inhibition [POLQ];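 note: spheroids exposed to drugs for seven days before reading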;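 for viability, T/C: 100% = DMSO vehicle control viability in luminescence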
condition summary: second compound 1 µM; first compound 0.0316 µM; stronger effect = lower value
// viability, T/C lookup, one value per entry
Express the result in % but write the number alone.

Here's what some known entries look like.
CCCS(=O)(=O)Nc1ccc(F)c(C(=O)c2c[nH]c3ncc(-c4ccc(Cl)cc4)cc23)c1F + COC1C(OC(N)=O)C(O)C(Oc2ccc3c(O)c(NC(=O)c4ccc(O)c(CC=C(C)C)c4)c(=O)oc3c2C)OC1(C)C ... 104
C=CCn1c(=O)c2cnc(Nc3ccc(N4CCN(C)CC4)cc3)nc2n1-c1cccc(C(C)(C)O)n1 + Nc1ccc(C#CCN(C(=O)Cc2ncc(C(F)(F)F)cc2C(F)(F)F)c2ccc(F)cc2)nn1 ... 102
CCCS(=O)(=O)Nc1ccc(F)c(C(=O)c2c[nH]c3ncc(-c4ccc(Cl)cc4)cc23)c1F + Cc1cccc(N(C)C(=O)C2C(O)CCN2c2nc(C)cc(C(F)(F)F)c2C#N)c1 ... 113
COc1cccc2c1C(=O)c1c(O)c3c(c(O)c1C2=O)CC(O)(C(=O)CO)CC3OC1CC(N)C(O)C(C)O1 (stereo not given) + COC1C(OC(N)=O)C(O)C(Oc2ccc3c(O)c(NC(=O)c4ccc(O)c(CC=C(C)C)c4)c(=O)oc3c2C)OC1(C)C ... 104

Next:
Prompt line: Fill in reported viability, T/C for this entry: CNCc1ccc(-c2[nH]c3cc(F)cc4c3c2CCNC4=O)cc1 + Nc1ccc(C#CCN(C(=O)Cc2ncc(C(F)(F)F)cc2C(F)(F)F)c2ccc(F)cc2)nn1
Response line: 119
